Source of measurements: patent US8748370B2

Assay System: Papain (Carica papaya, UniProt P00784)
Sequence (P00784 134-345): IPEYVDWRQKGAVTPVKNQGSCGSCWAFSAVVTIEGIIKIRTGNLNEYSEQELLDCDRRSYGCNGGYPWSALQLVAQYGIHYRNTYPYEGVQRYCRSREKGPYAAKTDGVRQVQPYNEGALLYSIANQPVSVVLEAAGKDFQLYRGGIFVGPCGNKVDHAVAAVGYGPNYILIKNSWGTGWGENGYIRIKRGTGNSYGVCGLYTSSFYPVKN
Peptide text beside a SMILES is read from it. * marks the point of attachment. Agmatine = N=C(N)NCCCCN*; BrAc = O=C(CBr)*; ClAc = O=C(CCl)*

Compound: CC(C)CC(NC(=O)CCCCNC(=N)N)C(=O)NC(CNC(=O)/C=C/S(=O)(=O)Cc1ccccc1)C(C)C (centres unmarked)
Ki [nM]: 1000
--
Compound: CC(C)CC(NC(=O)C(NC(=O)CBr)C(C)C)C(=O)NCCCCNC(=N)N (stereo not drawn) [A-12, BrAc—Val-Leu-Agm] (BrAc-Val-Leu-Agmatine; configuration not given here)
Ki [nM]: 94
--
Compound: COC(=O)C1OC1C(=O)NC(C(=O)NC(CC(C)C)C(=O)NCCCCNC(=N)N)C(C)C (centres unmarked)
Ki [nM]: 161
--
Compound: CC(C)CC(NC(=O)C(NC(=O)CCl)C(C)C)C(=O)NCCCCNC(=N)N (stereo not drawn) [A-11, ClAc—Val-Leu-Agm] (ClAc-Val-Leu-Agmatine; configuration not given here)
Ki [nM]: 93
--
Compound: CC(C)CC(NC(=O)C(NC(=O)/C=C/C(=O)c1ccccc1)C(C)C)C(=O)NCCCCNC(=N)N (centres unmarked)
Ki [nM]: 46
